# Test system: Plasmodium falciparum
# test.description: Primary screen in NF54 nanoGlo assay, in single point, at 2uM, 72h
# Assay type: functional, Erythrocyte
# experimental.parameters: timepoint 72 hour
Out of some 150,000 compounds screened, about 540 (0.36%) showed an effect of 50% or more. For the sample, strong results were picked, then their nearest neighbours and some compounds at random.
Exercise: for every item that follows, state its recorded % Inhibition.
I'd appreciate it if you included the unit after the number.

Q. Which % Inhibition value belongs to Cc1nc(C(F)(F)F)c(CN(C)C[C@H]2CCOC2)s1 ?
A. -8%

Q. Which % Inhibition value belongs to COc1ccc(C(=O)NCCCc2nnc3ccccn23)o1 ?
A. -9%

Q. Which % Inhibition value belongs to Cc1cc2[nH]c(=O)[nH]c2cc1S(=O)(=O)NC1CCCCC1 ?
A. -5%

Q. Which % Inhibition value belongs to COc1ncnc(OC)c1CNc1cnn(C)c1 ?
A. 35%

Q. Which % Inhibition value belongs to Cn1cc(C(=O)N[C@H]2CCN(c3ccc(F)c(Cl)c3)C2)cn1 ?
A. -3%

Q. Which % Inhibition value belongs to Cc1ccc(NC(=O)N2CCC(C(NC(=O)c3ccccc3)C(=O)N3CCCCC3C)CC2)cc1 (stereo not given) ?
A. 70%

Q. Which % Inhibition value belongs to COc1cccc(S(=O)(=O)N2CCC(OCCOc3ccccc3)CC2)c1 ?
A. 53%

Q. Which % Inhibition value belongs to O=C(N[C@@H]1CC[C@H]2CCOc3ccccc3C(=O)N3CCN(C4CCC(F)(F)CC4)C[C@H]3C(=O)NC[C@H]1O2)C1CCOCC1 ?
A. 29%

Q. Which % Inhibition value belongs to O=S(=O)(c1ccccc1)N1CCC(OCCOc2cccnc2)CC1 ?
A. -7%

Q. Which % Inhibition value belongs to CC(=O)N1CCC(C(NC(=O)c2cccs2)C(=O)N2CCCCC2C)CC1 (stereo not given) ?
A. 4%

---

# Test system: Plasmodium falciparum
# test.description: Primary screen in NF54 nanoGlo assay, in single point, at 2uM, 72h
# Type: functional, Erythrocyte
# experimental.parameters: timepoint 72 hour
Among all 150,000 compounds or so, about 540 (0.36%) showed an effect of 50% or more. Shown is part of a subset that was picked to be rich in strong results.
The label is T for % Inhibition below 40% and F for % Inhibition equal to or exceeding 40%.

Q. A record lists CC(C)NC[C@H](O)Cn1c(-c2ccccc2)ccc1-c1ccccc1 . Is its % Inhibition below 40%?
A. T

Q. A record lists O=C1C2CCCCN2C(=O)N1CC(O)COc1ccc(F)cc1 (stereo unspecified) . Is its % Inhibition below 40%?
A. T

Q. A record lists Cc1c(C)n(C[C@@H](O)CNC2CCCC2)c2c(Cl)cccc12 . Is its % Inhibition below 40%?
A. F

Q. A record lists CCC(C)NCC(O)Cn1c(-c2ccccc2)c(-c2ccccc2)c2cc(C)ccc21 (stereo unspecified) . Is its % Inhibition below 40%?
A. F

Q. A record lists Cc1ncsc1C(=O)N1CCC2(CCCCC2)C1 . Is its % Inhibition below 40%?
A. T

Q. A record lists Cc1c(C)n(C[C@@H](O)Cn2ccnc2C)c2c(Cl)cccc12 . Is its % Inhibition below 40%?
A. T

Q. A record lists Cc1cccc2ncnc(N(C)C3CC[S+]([O-])CC3)c12 (stereo unspecified) . Is its % Inhibition below 40%?
A. T

Q. A record lists CC(C)c1nccn1CCC(=O)Nc1ncn(C2CCCCC2)n1 . Is its % Inhibition below 40%?
A. F

Q. A record lists Cc1c(C)n(CC(O)CNC(C)c2ccccc2)c2c(Cl)cccc12 (stereo unspecified) . Is its % Inhibition below 40%?
A. F

Q. A record lists Cn1cccc1CNc1nnc([C@@H]2CCCO2)o1 . Is its % Inhibition below 40%?
A. T

Q. A record lists CC(NCC(O)Cn1c(-c2ccccc2)c(-c2ccccc2)c2ccc3ccccc3c21)c1ccccc1 (stereo unspecified) . Is its % Inhibition below 40%?
A. F
